I'd appreciate it if you could supply TGI values for the items below.
- System: SNB-75 CNS
- Experimental Protocol: NCI tumour cell line growth inhibition, 48 h
One number for each entry, in µM.

| Molecule | TGI [µM] |
| --- | --- |
| CN1C(CC(O)c2ccccc2)CCCC1CC(O)(c1ccccc1)c1ccccc1 (stereo not given) | 44.8 |

Name the recorded TGI of the item COc1ccc(N2C(=O)C3c4[nH]c5ccc(OC)cc5c4C4CCC(c5ccccc5)CC4C3C2=O)cc1 (stereo not given) in your answer.
16.7

----------
- Tested on: BT-549 breast
- Experimental Protocol: NCI tumour cell line growth inhibition, 48 h
Readout Kind: GI50

| Smiles Data | Readout Kind | Result |
| --- | --- | --- |
| CCSc1nnc(-c2ccc3ccccc3c2O)n1-c1ccccc1 | GI50 | > 100 µM |
| Fc1cccc(-c2nc(-c3c[nH]c4ncccc34)cs2)c1 | GI50 | 44.8 µM |

// for each compound below, give its GI50
1. CN1CCN(c2ccc(NC(=O)c3cncnc3Nc3ccc4c(ccn4Cc4cccc(F)c4)c3)cc2)CC1
2. CCSc1nc(N)c(C#N)c(-c2ccc(OC)c(OC)c2)c1C#N
3. N#Cc1cc2c(=S)[nH]c(=S)[nH]c2nc1SCc1ccccc1
4. O=C1c2ccccc2-c2c1c1ccc3ccccc3c1n2-c1ccccc1

["5.23 µM", "39.5 µM", "47.2 µM", "44.7 µM"]

----------
I'd appreciate it if you could supply GI50 values for the items below.
- System: OVCAR-4 ovarian
- Experimental Protocol: NCI tumour cell line growth inhibition, 48 h

| Compound | System | Result |
| --- | --- | --- |
| CCN(CC)CCC(CNc1c(C)cnc2cc(Cl)ccc12)c1ccc(Cl)c(Cl)c1 (centres undefined) | OVCAR-4 ovarian | 3.81 µM |
| O=C(Oc1c(Cl)c(Cl)c(Cl)c(Cl)c1Cl)C1CCCN1C(=O)OCc1ccccc1 (centres undefined) | OVCAR-4 ovarian | 2.66 µM |

// for each compound below, give its GI50
1. COc1cc(-c2cn(-c3ccc(F)cc3)c(=O)[nH]2)cc(OC)c1OC
2. N#Cc1cc2c(=S)[nH]c(=S)[nH]c2nc1SCc1ccccc1
3. CC12OC(C(=O)C13CCC3)C1C(=O)c3c(O)ccc(O)c3C(=O)C12 (centres undefined)
4. CCC1C[N+]2=C(c3cc(OC)c(OC)cc3CC2)c2c1cc1n2CCc2cc(OC)c(OC)cc2-1 (centres undefined)
5. CC(=O)OCCC/C(=C/c1cc2ccccc2c2ccccc12)[N+](=O)[O-]

["> 100 µM", "39.2 µM", "4.06 µM", "1.14 µM", "1.75 µM"]

// for each compound below, give its GI50
1. O=CCC(O)C(O)C(O)CO (centres undefined)
2. O=C1c2ccccc2-c2c1c1ccc3ccccc3c1n2-c1ccccc1

1: > 100 µM; 2: > 100 µM

// for each compound below, give its GI50
1. CN1CCN(c2ccc(NC(=O)c3cncnc3Nc3ccc4c(ccn4Cc4cccc(F)c4)c3)cc2)CC1
2. COc1ccccc1N1CCN(CC(O)Cn2c(=O)c3c(OC)nc(C)cc3c(=O)n2-c2ccccc2)CC1 (centres undefined)
3. C=C(C)[C@@H]1CC[C@]2(COC(=O)c3ccccc3C(=O)O)CC[C@]3(C)[C@H](CC[C@@H]4[C@@]5(C)CC[C@H](OC(=O)c6ccccc6C(=O)O)C(C)(C)[C@@H]5CC[C@]43C)[C@@H]12
4. COc1ccc(-n2nc(C(=O)NCC(=O)Nc3nc4cc(OC)ccc4s3)c3ccccc3c2=O)cc1
5. CS(=O)(=O)Nc1cccc(-c2ccc3ncnc(Nc4cncc(Cl)c4)c3c2)c1

1. 3.97 µM
2. > 100 µM
3. 36.7 µM
4. 0.434 µM
5. 4.16 µM
